- experiment: Whole-blood pharmacokinetics of CBD and THC after single oral dose of Cannabis sativa extract
- condition: male, Wistar, rat, whole blood, oral, 30 mg/kg, Mean Concentration, blood; Cremophor; 0.5 h; single oral dose of extract 30 mg/kg
measurementType: concentration at 0.5 h (ng/g)

>>> numericresult("CCCCCc1cc(O)c2c(c1)OC(C)(C)[C@@H]1CCC(C)=C[C@@H]21 [THC, Δ-9-tetrahydrocannabinol]")
13.1
>>> numericresult("C=C(C)[C@@H]1CCC(C)=C[C@H]1c1c(O)cc(CCCCC)cc1O")
120

###

- experiment: Brain pharmacokinetics of CBD and THC after single oral dose of Cannabis sativa extract
- condition: male, Wistar, rat, brain, oral, 30 mg/kg, Mean Concentration ± SD; Rapae oleum; 6 h; single oral dose of extract 30 mg/kg
measurementType: concentration at 6 h (ng/g)

>>> numericresult("CCCCCc1cc(O)c2c(c1)OC(C)(C)[C@@H]1CCC(C)=C[C@@H]21 [THC, Δ-9-tetrahydrocannabinol]")
3.76

###

- experiment: Whole-blood pharmacokinetics of CBD and THC after single oral dose of Cannabis sativa extract
- condition: male, Wistar, rat, whole blood, po, 30 mg/kg, Cmax; Rapae oleum; single oral dose of extract 30 mg/kg
measurementType: Cmax

>>> result("C=C(C)[C@@H]1CCC(C)=C[C@H]1c1c(O)cc(CCCCC)cc1O")
"334 ng/mL"
>>> result("CCCCCc1cc(O)c2c(c1)OC(C)(C)[C@@H]1CCC(C)=C[C@@H]21 [THC, Δ-9-tetrahydrocannabinol]")
"26.2 ng/mL"

###

- experiment: Whole-blood pharmacokinetics of CBD and THC after single oral dose of Cannabis sativa extract
- condition: male, Wistar, rat, whole blood, po, 30 mg/kg, Tmax; Rapae oleum; single oral dose of extract 30 mg/kg
Reported Tmax values are given for each entry in this list.
measurementType: Tmax (h)

>>> numericresult("CCCCCc1cc(O)c2c(c1)OC(C)(C)[C@@H]1CCC(C)=C[C@@H]21 [THC, Δ-9-tetrahydrocannabinol]")
4
>>> numericresult("C=C(C)[C@@H]1CCC(C)=C[C@H]1c1c(O)cc(CCCCC)cc1O")
2

###

- experiment: Whole-blood pharmacokinetics of CBD and THC after single oral dose of Cannabis sativa extract
- condition: male, Wistar, rat, whole blood, oral, 30 mg/kg, Mean Concentration ± SD, blood; Rapae oleum; 0.5 h; single oral dose of extract 30 mg/kg
measurementType: concentration at 0.5 h (ng/g)

>>> numericresult("CCCCCc1cc(O)c2c(c1)OC(C)(C)[C@@H]1CCC(C)=C[C@@H]21 [THC, Δ-9-tetrahydrocannabinol]")
11.9
>>> numericresult("C=C(C)[C@@H]1CCC(C)=C[C@H]1c1c(O)cc(CCCCC)cc1O [CBD, cannabidiol]")
26.9

###

- experiment: Whole-blood pharmacokinetics of CBD and THC after single oral dose of Cannabis sativa extract
- condition: male, Wistar, rat, whole blood, oral, 30 mg/kg, mean concentration over time, Blood/Rapae Oleum; 2 h; single oral dose of extract 30 mg/kg; Table 7
Reported concentration at 2 h values are given for each entry in this list.
measurementType: concentration at 2 h

>>> result("CCCCCc1cc(O)c2c(c1)OC(C)(C)[C@@H]1CCC(C)=C[C@@H]21 [THC, Δ-9-tetrahydrocannabinol]")
"24 ng/mL"
>>> result("C=C(C)[C@@H]1CCC(C)=C[C@H]1c1c(O)cc(CCCCC)cc1O [CBD, cannabidiol]")
"334 ng/mL"

###

- experiment: Whole-blood pharmacokinetics of CBD and THC after single oral dose of Cannabis sativa extract
- condition: male, Wistar, rat, whole blood, oral, 30 mg/kg, Mean Concentration, blood; Cremophor; 24 h; single oral dose of extract 30 mg/kg
Reported concentration at 24 h values are given for each entry in this list.
measurementType: concentration at 24 h (ng/g)

>>> numericresult("CCCCCc1cc(O)c2c(c1)OC(C)(C)[C@@H]1CCC(C)=C[C@@H]21 [THC, Δ-9-tetrahydrocannabinol]")
3.79
>>> numericresult("C=C(C)[C@@H]1CCC(C)=C[C@H]1c1c(O)cc(CCCCC)cc1O")
12.3

###

Reported concentration at 2 h values are given for each entry in this list.
- experiment: Whole-blood pharmacokinetics of CBD and THC after single oral dose of Cannabis sativa extract
- condition: male, Wistar, rat, whole blood, oral, 30 mg/kg, mean concentration over time, Blood/Cremophor; 2 h; single oral dose of extract 30 mg/kg; Table 7
measurementType: concentration at 2 h (ng/mL)

>>> numericresult("C=C(C)[C@@H]1CCC(C)=C[C@H]1c1c(O)cc(CCCCC)cc1O")
46.5
>>> numericresult("CCCCCc1cc(O)c2c(c1)OC(C)(C)[C@@H]1CCC(C)=C[C@@H]21 [THC, Δ-9-tetrahydrocannabinol]")
14

###

- experiment: Whole-blood pharmacokinetics of CBD and THC after single oral dose of Cannabis sativa extract
- condition: male, Wistar, rat, whole blood, oral, 30 mg/kg, mean concentration over time, Blood/Rapae Oleum; 1 h; single oral dose of extract 30 mg/kg; Table 7
measurementType: concentration at 1 h (ng/mL)

>>> numericresult("C=C(C)[C@@H]1CCC(C)=C[C@H]1c1c(O)cc(CCCCC)cc1O")
107
>>> numericresult("CCCCCc1cc(O)c2c(c1)OC(C)(C)[C@@H]1CCC(C)=C[C@@H]21 [THC, Δ-9-tetrahydrocannabinol]")
11

###

Reported Cmax values are given for each entry in this list.
- experiment: Brain pharmacokinetics of CBD and THC after single oral dose of Cannabis sativa extract
- condition: male, Wistar, rat, brain, po, 30 mg/kg, Cmax; Cremophor; single oral dose of extract 30 mg/kg
measurementType: Cmax (ng/g)

>>> numericresult("CCCCCc1cc(O)c2c(c1)OC(C)(C)[C@@H]1CCC(C)=C[C@@H]21 [THC, Δ-9-tetrahydrocannabinol]")
56.9
>>> numericresult("C=C(C)[C@@H]1CCC(C)=C[C@H]1c1c(O)cc(CCCCC)cc1O [CBD, cannabidiol]")
275

###

- experiment: Brain pharmacokinetics of CBD and THC after single oral dose of Cannabis sativa extract
- condition: male, Wistar, rat, brain, po, 30 mg/kg, AUC0–24, brain; Rapae oleum; single oral dose of extract 30 mg/kg
Reported AUC(0-t) values are given for each entry in this list.
measurementType: AUC(0-t) (ng·h/mL)

>>> numericresult("CCCCCc1cc(O)c2c(c1)OC(C)(C)[C@@H]1CCC(C)=C[C@@H]21 [THC, Δ-9-tetrahydrocannabinol]")
553
>>> numericresult("C=C(C)[C@@H]1CCC(C)=C[C@H]1c1c(O)cc(CCCCC)cc1O")
1990

###

- experiment: Brain pharmacokinetics of CBD and THC after single oral dose of Cannabis sativa extract
- condition: male, Wistar, rat, brain, oral, 30 mg/kg, Mean Concentration; Cremophor; 24 h; single oral dose of extract 30 mg/kg
measurementType: concentration at 24 h

>>> result("C=C(C)[C@@H]1CCC(C)=C[C@H]1c1c(O)cc(CCCCC)cc1O")
"3.6 ng/g"

###

- experiment: Brain pharmacokinetics of CBD and THC after single oral dose of Cannabis sativa extract
- condition: male, Wistar, rat, brain, oral, 30 mg/kg, Mean Concentration ± SD; Rapae oleum; 2 h; single oral dose of extract 30 mg/kg
measurementType: concentration at 2 h (ng/g)

>>> numericresult("CCCCCc1cc(O)c2c(c1)OC(C)(C)[C@@H]1CCC(C)=C[C@@H]21 [THC, Δ-9-tetrahydrocannabinol]")
75.8

###

- experiment: Brain pharmacokinetics of CBD and THC after single oral dose of Cannabis sativa extract
- condition: male, Wistar, rat, brain, oral, 30 mg/kg, Mean Concentration; Cremophor; 2 h; single oral dose of extract 30 mg/kg
Reported concentration at 2 h values are given for each entry in this list.
measurementType: concentration at 2 h

>>> result("C=C(C)[C@@H]1CCC(C)=C[C@H]1c1c(O)cc(CCCCC)cc1O [CBD, cannabidiol]")
"81.1 ng/g"
>>> result("CCCCCc1cc(O)c2c(c1)OC(C)(C)[C@@H]1CCC(C)=C[C@@H]21 [THC, Δ-9-tetrahydrocannabinol]")
"56.9 ng/g"

###

Reported concentration at 24 h values are given for each entry in this list.
- experiment: Whole-blood pharmacokinetics of CBD and THC after single oral dose of Cannabis sativa extract
- condition: male, Wistar, rat, whole blood, oral, 30 mg/kg, Mean Concentration ± SD, blood; Rapae oleum; 24 h; single oral dose of extract 30 mg/kg
measurementType: concentration at 24 h

>>> result("C=C(C)[C@@H]1CCC(C)=C[C@H]1c1c(O)cc(CCCCC)cc1O [CBD, cannabidiol]")
"2.76 ng/g"
>>> result("CCCCCc1cc(O)c2c(c1)OC(C)(C)[C@@H]1CCC(C)=C[C@@H]21 [THC, Δ-9-tetrahydrocannabinol]")
"0.445 ng/g"

###

- experiment: Whole-blood pharmacokinetics of CBD and THC after single oral dose of Cannabis sativa extract
- condition: male, Wistar, rat, whole blood, oral, 30 mg/kg, Mean Concentration ± SD, blood; Rapae oleum; 1 h; single oral dose of extract 30 mg/kg
Reported concentration at 1 h values are given for each entry in this list.
measurementType: concentration at 1 h (ng/g)

>>> numericresult("CCCCCc1cc(O)c2c(c1)OC(C)(C)[C@@H]1CCC(C)=C[C@@H]21 [THC, Δ-9-tetrahydrocannabinol]")
11
>>> numericresult("C=C(C)[C@@H]1CCC(C)=C[C@H]1c1c(O)cc(CCCCC)cc1O")
107
